B1: V236I, Q93D82 (parent)
chain: MSTAIVTNVKHFGGMGSALRLSEAGHTVACHDESFKQKDELEAFAETYPQLKPMSEQEPAELIEAVTSAYGQVDVLVSNDIFAPEFQPIDKYAVEDYRGAVEALQIRPFALVNAVASQMKKRKSGHIIFITSATPFGPWKELSTYTSARAGACTLANALSKELGEYNIPVFAIGPNYLHSEDSPYFYPTEPWKTNPEHVAHVKKVTALQRLGTQKELGELVAFLASGSCDYLTGQVFWLAGGFPMIERWPGMPE

Variants of: B1
cond: Rhizobium radiobacter; pH 7.7; Thermal; CD; Phosphate 5mM; structure 1PWX; whole UniProt chain shown
Here the recorded change of melting temperature, mutant - wild type (higher = more stable) is given for each entry.
measure: change of melting temperature, mutant - wild type (higher = more stable) (°C)

V236I
1.5
A69R
0.5
D230N
-3
Q37E
0
A60L
-2
S55P
0
A29L
3
C153V
-14.5
N195V
-6
A93N
4
G99D
0
N157R
-5
T134W
-1
A69L
-0.5
T7F
0
E64Q
1
D96H
-9
T154L
-6.5
E219N
-1.5
D80E
-5
H126V
-0.5
T134I
-1.5
T7M
0
L111W
-8
F136W
-4.5
N113H
-2
P253S
-2.5
T27V
-0.5
C153H
-11.5
T47S
-0.5
D39E
0
A69K
-1.5
N157W
-9
E33P
-0.5
A103Q
-4
K123H
0.5
G99H
0
V77I
-1
V94L
-1.5
H198Y
-2.5
E247Y
-2
T47A
-2
R107Q
0
A69H
-0.5
A83Q
0.5
C153L
-2
D80V
-1
K140P
-10.5
A158V
6
E247P
1
S117A
-1.5
E42M
1.5
N113Q
-3.5
A103Y
-4.5
Y48F
0.5
V199K
1.5
S68K
0
P244A
2
T47K
1
T194Q
-4
A200Y
-2.5
S68Q
-2
A60K
-4
S68N
0.5
G99A
1
A93K
5.5
K161F
-1
Q87R
3.5
G99R
-9.5
E165A
0.5
T67Q
-1.5
C153N
13.5

These data points were gathered from FireProtDB (doi:10.1093/protein/gzw068).
